target: SARS-CoV-2 S1 RBD (SARS-CoV-2, UniProt P0DTC2 319-537); test: competition
Each item that follows carries a reported pIC50.
Just so you know, pIC50 here is -log10 of the concentration in molar units; reply with that number alone.

Query string: pIC50 lookup needed for 2-5 (antibody, V domains shown) VH: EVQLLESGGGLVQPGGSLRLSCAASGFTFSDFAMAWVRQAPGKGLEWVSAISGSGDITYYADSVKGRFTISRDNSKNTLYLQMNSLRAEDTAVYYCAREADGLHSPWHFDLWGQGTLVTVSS VL: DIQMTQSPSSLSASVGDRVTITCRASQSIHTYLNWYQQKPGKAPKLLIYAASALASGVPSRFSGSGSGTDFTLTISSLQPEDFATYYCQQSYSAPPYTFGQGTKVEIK , thanks.
Result string: 8.42

Query string: Consider next the binder 2-9 (antibody, V domains shown) VH: EVQLLESGGGLVQPGGSLRLSCAASGFTFPRYAMSWVRQAPGKGLEWVSTISGSGSTTYYADSVKGRFTISRDNSKNTLYLQMNSLRAEDTAVYYCARLIDAFDIWGQGTLVTVSS VL: DIQMTQSPSSLSASVGDRVTITCRASQRIGTYLNWYQQKPGKAPKLLIYAASNLEGGVPSRFSGSGSGTDFTLTISSLQPEDFATYYCQQNYSTTWTFGQGTKVEIK in the same way.
Result string: 8.33

Query string: Consider next the binder 2-6 (antibody, V domains shown) VH: EVQLLESGGGLVQPGGSLRLSCAASGFTFSNYPMNWVRQAPGKGLEWVSTISGSGGNTFYADSVKGRFTISRDNSKNTLYLQMNSLRAEDTAVYYCVRHDEYSFDYWGQGTLVTVSS VL: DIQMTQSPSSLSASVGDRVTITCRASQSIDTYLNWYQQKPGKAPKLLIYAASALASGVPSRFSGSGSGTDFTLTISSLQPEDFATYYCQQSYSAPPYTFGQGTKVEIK in the same way.
Result string: 9.12

Query string: Consider next the binder 2-2 (antibody, V domains shown) VH: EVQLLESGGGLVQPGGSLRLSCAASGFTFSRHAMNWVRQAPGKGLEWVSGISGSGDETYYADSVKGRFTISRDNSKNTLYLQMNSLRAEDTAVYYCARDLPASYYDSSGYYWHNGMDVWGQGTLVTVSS VL: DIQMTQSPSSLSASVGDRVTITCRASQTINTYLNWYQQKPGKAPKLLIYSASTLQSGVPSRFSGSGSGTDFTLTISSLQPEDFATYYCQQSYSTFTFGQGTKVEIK in the same way.
Result string: 8.90

The values you see were collected from patent US20210355194A1.
